test: Exposure and tissue distribution after 14 days repeat dosing, mouse; assay type: in vivo; conditions: NMRI, mouse, brain, po; Female mice, 60 mg/kg p.o. 14 days, 2 h post last dose; read-out: Brain/plasma ratio
outcome-measure: Kp at 2 h
# print the numeric value only

Sure, the documented Kp at 2 h for "O=c1ccc2ccc(O[C@@H]3C[C@H]4CC[C@@H](C3)N4)cc2o1" is 6

----------
assay: Exposure and tissue distribution after 14 days repeat dosing, rat; type: in vivo; conditions: Wistar, rat, plasma, sc; Male rats, 15 mg/kg s.c. 14 days, 2 h post last dose; read-out: Plasma concentration
outcome-measure: concentration at 2 h (ng/mL)
Report only the number, with the unit ng/mL understood.

Sure, the documented concentration at 2 h for O=c1ccc2ccc(O[C@@H]3C[C@H]4CC[C@@H](C3)N4)cc2o1 [Compound (I)] is 398

----------
experiment: Bioavailability study in mouse; type: in vivo; conditions: female, NMRI, plasma, intravenous, 10 mg/kg
outcome-measure: clearance (mL/min/kg)
Report only the number, with the unit mL/min/kg understood.

Sure, the documented clearance for "O=c1ccc2ccc(O[C@@H]3C[C@H]4CC[C@@H](C3)N4)cc2o1" is 71.7

----------
experiment: Bioavailability study in dog; assay type: in vivo; conditions: plasma; Female beagle dog
outcome-measure: Vd (L/kg)
Report only the number, with the unit L/kg understood.

Sure, the documented Vd for "O=c1ccc2ccc(O[C@@H]3C[C@H]4CC[C@@H](C3)N4)cc2o1" is 5

----------
assay: Exposure and tissue distribution after 14 days repeat dosing, rat; format: in vivo; conditions: Wistar, rat, brain/plasma, sc; Female rats, 15 mg/kg s.c. 14 days, 2 h post last dose; read-out: Brain/plasma ratio
outcome-measure: Kp at 2 h
# print the numeric value only

Sure, the documented Kp at 2 h for O=c1ccc2ccc(O[C@@H]3C[C@H]4CC[C@@H](C3)N4)cc2o1 [Compound (I)] is 6

----------
experiment: Tissue distribution after single dose, rat; format: in vivo; settings: male, Wistar, sc; Plasma, rat 5 mg/kg s.c.; read-out: AUC(0-24 h)
outcome-measure: AUC(0-t) (ng·h/mL)
Report only the number, with the unit ng·h/mL understood.

Sure, the documented AUC(0-t) for "O=c1ccc2ccc(O[C@@H]3C[C@H]4CC[C@@H](C3)N4)cc2o1" is 805

----------
experiment: Bioavailability study in dog; assay type: in vivo; conditions: plasma, po; Female beagle dog, 2.5 mg/kg p.o.; read-out: T½ p.o. (converted)
outcome-measure: half-life (h)
Report only the number, with the unit h understood.

Sure, the documented half-life for "O=c1ccc2ccc(O[C@@H]3C[C@H]4CC[C@@H](C3)N4)cc2o1" is 1.6

----------
experiment: Exposure and tissue distribution after 14 days repeat dosing, rat; format: in vivo; conditions: Wistar, rat, in vivo, sc; Female rats, 10 mg/kg s.c. 14 days, 2 h post last dose; read-out: Liver/plasma ratio
outcome-measure: Kp at 2 h
# print the numeric value only

Sure, the documented Kp at 2 h for "O=c1ccc2ccc(O[C@@H]3C[C@H]4CC[C@@H](C3)N4)cc2o1" is 5

----------
assay: Exposure and tissue distribution after 14 days repeat dosing, rat; type: in vivo; settings: rat, liver, sc; Female rats, 25 mg/kg s.c. 14 days, 2 h post last dose; read-out: Liver concentration
outcome-measure: concentration at 2 h (ng/g)
Report only the number, with the unit ng/g understood.

Sure, the documented concentration at 2 h for "O=c1ccc2ccc(O[C@@H]3C[C@H]4CC[C@@H](C3)N4)cc2o1" is 2310

All figures here come from patent US20220288052A1.
